# experimental_details: activity coefficient (dimensionless); of the first substance listed, at infinite dilution; xn = mol fraction of the nth substance listed
# measurement_context: 323.15 K; Liquid; dilutor; x1 = 0
property: activity coefficient
Write the value as a bare number.

QUERY: For the compound CCCCCCCC [octane] + CCCC[N+]1(C)CCCC1.O=S(=O)([N-]S(=O)(=O)C(F)(F)F)C(F)(F)F , report activity coefficient.
RESULT: 25.2

QUERY: Name the recorded activity coefficient of the compound listed here: C=CCCCC [hex-1-ene] + CCCC[N+]1(C)CCCC1.O=S(=O)([N-]S(=O)(=O)C(F)(F)F)C(F)(F)F
RESULT: 6.82

QUERY: For the compound CCCCC [pentane] + CCCCCC[n+]1ccn(C)c1.O=S(=O)([N-]S(=O)(=O)C(F)(F)F)C(F)(F)F , give its measured activity coefficient value.
RESULT: 5.48

QUERY: Fill in reported activity coefficient for this entry: CCCCCCC [heptane] + CCCCCCCCn1cc[n+](C)c1.O=S(=O)([N-]S(=O)(=O)C(F)(F)F)C(F)(F)F
RESULT: 6.57

QUERY: Specify activity coefficient for C1=CCCC1 [cyclopentene] + CCCCCCCCn1cc[n+](C)c1.O=S(=O)([N-]S(=O)(=O)C(F)(F)F)C(F)(F)F and stop.
RESULT: 1.81

QUERY: Provide activity coefficient value for the following compound: CO [methanol] + CCCCCC[n+]1ccn(C)c1.O=S(=O)([N-]S(=O)(=O)C(F)(F)F)C(F)(F)F
RESULT: 1.14

QUERY: Identify the reported activity coefficient for the following entry. CCCCCC [hexane] + CCCC[N+]1(C)CCCC1.O=S(=O)([N-]S(=O)(=O)C(F)(F)F)C(F)(F)F
RESULT: 12.1

====

# experimental_details: activity coefficient (dimensionless); of the first substance listed, at infinite dilution; xn = mol fraction of the nth substance listed
# measurement_context: 313.15 K; Liquid; dilutor; x1 = 0
property: activity coefficient
Note: the reply should be a number with no unit written.

QUERY: Output measured activity coefficient for this item: C=CCCCC [hex-1-ene] + CCCCCCCCn1cc[n+](C)c1.O=S(=O)([N-]S(=O)(=O)C(F)(F)F)C(F)(F)F
RESULT: 3.3

QUERY: Find the measured activity coefficient of C1CCCC1 [cyclopentane] + CCCCCCCCn1cc[n+](C)c1.O=S(=O)([N-]S(=O)(=O)C(F)(F)F)C(F)(F)F and report it.
RESULT: 2.64

QUERY: Specify reported activity coefficient for the compound shown: CCCCC [pentane] + CCCCCC[n+]1ccn(C)c1.O=S(=O)([N-]S(=O)(=O)C(F)(F)F)C(F)(F)F
RESULT: 5.67

====

# experimental_details: activity coefficient (dimensionless); of the first substance listed, at infinite dilution; xn = mol fraction of the nth substance listed
# measurement_context: 313.15 K; Liquid; Chromatography; x1 = 0
Tick T if activity coefficient is 4 or greater. Tick F if activity coefficient is less than 4.

QUERY: Does C=CCCCCCC [oct-1-ene] + CCCCCCCCn1cc[n+](C)c1.O=S(=O)([N-]S(=O)(=O)C(F)(F)F)C(F)(F)F have a reported activity coefficient of at least 4?
RESULT: T

QUERY: Does activity coefficient meet or surpass 4 for CCO [ethanol] + CCCCCC[n+]1ccn(C)c1.O=S(=O)([N-]S(=O)(=O)C(F)(F)F)C(F)(F)F ?
RESULT: F

QUERY: Check this compound for activity coefficient at or above 4: Cc1ccccc1 [toluene] + CCCCCC[n+]1ccn(C)c1.O=S(=O)([N-]S(=O)(=O)C(F)(F)F)C(F)(F)F
RESULT: F

QUERY: Textbook exercise: given the entry CCCCCC [hexane] + CCCCCC[n+]1ccn(C)c1.O=S(=O)([N-]S(=O)(=O)C(F)(F)F)C(F)(F)F , state whether its activity coefficient is greater than or equal to 4.
RESULT: T

QUERY: Quick check, activity coefficient >= 4? C=CCCCC [hex-1-ene] + CCCCCC[n+]1ccn(C)c1.O=S(=O)([N-]S(=O)(=O)C(F)(F)F)C(F)(F)F
RESULT: T

QUERY: Record CCCC(C)=O [pentan-2-one] + CCCCCC[n+]1ccn(C)c1.O=S(=O)([N-]S(=O)(=O)C(F)(F)F)C(F)(F)F ; criterion: activity coefficient no lower than 4. Met?
RESULT: F

QUERY: Could you tell me if the measured activity coefficient of CCOC(C)(C)C [2-ethoxy-2-methylpropane] + CCCCCC[n+]1ccn(C)c1.O=S(=O)([N-]S(=O)(=O)C(F)(F)F)C(F)(F)F reaches 4 or more?
RESULT: F

QUERY: Confirm if activity coefficient reported for the compound CCCO [propan-1-ol] + CCCCCCCCn1cc[n+](C)c1.O=S(=O)([N-]S(=O)(=O)C(F)(F)F)C(F)(F)F is 4 or above.
RESULT: F

QUERY: Is it the case that C1CCCCC1 [cyclohexane] + CCCCCC[n+]1ccn(C)c1.O=S(=O)([N-]S(=O)(=O)C(F)(F)F)C(F)(F)F has activity coefficient reaching or exceeding 4?
RESULT: T

QUERY: Given the entry C1=CCCCC1 [cyclohexene] + CCCCCCCCn1cc[n+](C)c1.O=S(=O)([N-]S(=O)(=O)C(F)(F)F)C(F)(F)F , answer whether its activity coefficient meets or surpasses 4.
RESULT: F

QUERY: Given the entry O [water] + CCCCCCCCn1cc[n+](C)c1.O=S(=O)([N-]S(=O)(=O)C(F)(F)F)C(F)(F)F , answer whether its activity coefficient meets or surpasses 4.
RESULT: F

QUERY: Determine whether this compound has activity coefficient no lower than 4: Cc1ccc(C)cc1 [1,4-dimethylbenzene] + CCCCCCCCn1cc[n+](C)c1.O=S(=O)([N-]S(=O)(=O)C(F)(F)F)C(F)(F)F
RESULT: F

QUERY: Entry CCCCCCC [heptane] + CCCCCC[n+]1ccn(C)c1.O=S(=O)([N-]S(=O)(=O)C(F)(F)F)C(F)(F)F : is its activity coefficient no less than 4?
RESULT: T

QUERY: Does the reported activity coefficient for CCCCCCCC [octane] + CCCCCC[n+]1ccn(C)c1.O=S(=O)([N-]S(=O)(=O)C(F)(F)F)C(F)(F)F fall at or above the 4 mark?
RESULT: T

QUERY: Is activity coefficient for C1CCOC1 [tetrahydrofuran] + CCCCCC[n+]1ccn(C)c1.O=S(=O)([N-]S(=O)(=O)C(F)(F)F)C(F)(F)F at or above 4?
RESULT: F

====

# experimental_details: activity coefficient (dimensionless); of the first substance listed, at infinite dilution; xn = mol fraction of the nth substance listed
# measurement_context: 313.15 K; Liquid; Chromatography; x1 = 0
Response key: fulfilled means activity coefficient >= 1; not fulfilled means activity coefficient < 1.

QUERY: Is activity coefficient at least 1? Consider CCC(C)(C)OC [2-methoxy-2-methylbutane] + CCCCCC[n+]1ccn(C)c1.O=S(=O)([N-]S(=O)(=O)C(F)(F)F)C(F)(F)F
RESULT: fulfilled

QUERY: For this molecule, is measured activity coefficient 1 or higher? CC(C)OC(C)C [diisopropyl ether] + CCCCCC[n+]1ccn(C)c1.O=S(=O)([N-]S(=O)(=O)C(F)(F)F)C(F)(F)F
RESULT: fulfilled

QUERY: Test whether the molecule c1ccccc1 [benzene] + CCCCCC[n+]1ccn(C)c1.O=S(=O)([N-]S(=O)(=O)C(F)(F)F)C(F)(F)F records activity coefficient of 1 or higher.
RESULT: not fulfilled

QUERY: Check this molecule for activity coefficient at or above 1: C=CCCCC [hex-1-ene] + CCCCCCCCn1cc[n+](C)c1.O=S(=O)([N-]S(=O)(=O)C(F)(F)F)C(F)(F)F
RESULT: fulfilled

QUERY: Test whether the molecule CO [methanol] + CCCCCC[n+]1ccn(C)c1.O=S(=O)([N-]S(=O)(=O)C(F)(F)F)C(F)(F)F records activity coefficient of 1 or higher.
RESULT: fulfilled

QUERY: Check the entry CCCCCCCC [octane] + CCCCCCCCn1cc[n+](C)c1.O=S(=O)([N-]S(=O)(=O)C(F)(F)F)C(F)(F)F : does activity coefficient equal or exceed 1?
RESULT: fulfilled

QUERY: Item C1=CCCCC1 [cyclohexene] + CCCCCC[n+]1ccn(C)c1.O=S(=O)([N-]S(=O)(=O)C(F)(F)F)C(F)(F)F with activity coefficient of 1 or above?
RESULT: fulfilled

QUERY: Please tell me: is the molecule Cc1cccc(C)c1 [1,3-dimethylbenzene] + CCCCCCCCn1cc[n+](C)c1.O=S(=O)([N-]S(=O)(=O)C(F)(F)F)C(F)(F)F at or over 1 in terms of activity coefficient?
RESULT: fulfilled

QUERY: Is reported activity coefficient greater than or equal to 1 here: C1CCCCC1 [cyclohexane] + CCCCCCCCn1cc[n+](C)c1.O=S(=O)([N-]S(=O)(=O)C(F)(F)F)C(F)(F)F
RESULT: fulfilled

QUERY: Check this molecule for activity coefficient at or above 1: CCCCC [pentane] + CCCCCC[n+]1ccn(C)c1.O=S(=O)([N-]S(=O)(=O)C(F)(F)F)C(F)(F)F
RESULT: fulfilled

QUERY: Does the molecule C=CCCC [1-pentene] + CCCCCCCCn1cc[n+](C)c1.O=S(=O)([N-]S(=O)(=O)C(F)(F)F)C(F)(F)F have recorded activity coefficient that is 1 or more?
RESULT: fulfilled

QUERY: Reported activity coefficient at or above 1? CCO [ethanol] + CCCCCCCCn1cc[n+](C)c1.O=S(=O)([N-]S(=O)(=O)C(F)(F)F)C(F)(F)F
RESULT: fulfilled

QUERY: Would you say C=CCCCCC [1-heptene] + CCCCCCCCn1cc[n+](C)c1.O=S(=O)([N-]S(=O)(=O)C(F)(F)F)C(F)(F)F shows activity coefficient at minimum 1?
RESULT: fulfilled

QUERY: Test whether the molecule C=CCCC [1-pentene] + CCCCCC[n+]1ccn(C)c1.O=S(=O)([N-]S(=O)(=O)C(F)(F)F)C(F)(F)F records activity coefficient of 1 or higher.
RESULT: fulfilled

QUERY: Textbook exercise: given the entry Cc1ccccc1 [toluene] + CCCCCCCCn1cc[n+](C)c1.O=S(=O)([N-]S(=O)(=O)C(F)(F)F)C(F)(F)F , state whether its activity coefficient is greater than or equal to 1.
RESULT: not fulfilled

QUERY: Answer whether activity coefficient of CCCCCC [hexane] + CCCCCCCCn1cc[n+](C)c1.O=S(=O)([N-]S(=O)(=O)C(F)(F)F)C(F)(F)F is greater than or equal to 1.
RESULT: fulfilled

QUERY: Could you tell me if the measured activity coefficient of Cc1ccccc1C [1,2-dimethylbenzene] + CCCCCCCCn1cc[n+](C)c1.O=S(=O)([N-]S(=O)(=O)C(F)(F)F)C(F)(F)F reaches 1 or more?
RESULT: fulfilled

QUERY: Could you tell me if the measured activity coefficient of CCCO [propan-1-ol] + CCCCCC[n+]1ccn(C)c1.O=S(=O)([N-]S(=O)(=O)C(F)(F)F)C(F)(F)F reaches 1 or more?
RESULT: fulfilled

QUERY: Given CCC(C)=O [butanone] + CCCCCC[n+]1ccn(C)c1.O=S(=O)([N-]S(=O)(=O)C(F)(F)F)C(F)(F)F , state whether its activity coefficient is at least 1.
RESULT: not fulfilled

QUERY: Does the molecule Cc1cccc(C)c1 [1,3-dimethylbenzene] + CCCCCC[n+]1ccn(C)c1.O=S(=O)([N-]S(=O)(=O)C(F)(F)F)C(F)(F)F have recorded activity coefficient that is 1 or more?
RESULT: fulfilled

Origin of measurements: the NIST ThermoML archive (doi:10.1016/j.jct.2005.04.010)
